# Scavenging activity per record follows
assay: DPPH radical scavenging activity of sample and control solutions; format: biochemical; conditions: 0.08 mg/ml; 0.2 mmol/L DPPH, 30 min, 517 nm; n = 3
# unit: % | format: bare number

Worked set:
Reported Scavenging activity ( COc1c(O)cc2c(c1O)C1OC(COC(=O)CCSCCC(=O)OCC3OC4c5c(cc(O)c(OC)c5O)C(=O)OC4C(O)C3O)C(O)C(O)C1OC2=O (stereo not shown) ) = 37.78

Reported Scavenging activity ( "O=C(O)CCSCCC(=O)O" ) = 8.73

The recorded Scavenging activity for entry "COc1c(O)cc2c(c1O)[C@@H]1O[C@H](CO)[C@@H](O)[C@H](O)[C@H]1OC2=O" equals 12.25

Then there is this molecule:
The measured Scavenging activity associated with "O=C1O[C@H]([C@@H](O)CO)C(O)=C1O" reads 94.90

###

experiment: DPPH radical scavenging activity of sample and control solutions; format: biochemical; conditions: 0.16 mg/ml; 0.2 mmol/L DPPH, 30 min, 517 nm; n = 3
Parameter: Scavenging activity. Scope: all listed entries.
Don't forget the unit after the value.

Take a look at these entries with their results.
O=C1O[C@H]([C@@H](O)CO)C(O)=C1O [Vc, Vitamin C] yielded Scavenging activity of 95.03%

Record COc1c(O)cc2c(c1O)C1OC(COC(=O)CCSCCC(=O)OCC3OC4c5c(cc(O)c(OC)c5O)C(=O)OC4C(O)C3O)C(O)C(O)C1OC2=O (stereo not shown) [B] , field Scavenging activity: 51.33%

Scavenging activity in this record for COc1c(O)cc2c(c1O)[C@@H]1O[C@H](CO)[C@@H](O)[C@H](O)[C@H]1OC2=O [C, Bergenin] : 19.80%

Continue with the next compound.
The compound listed as O=C(O)CCSCCC(=O)O [D, Thiodipropionic acid] has a reported Scavenging activity of 9.07%

###

experiment: DPPH radical scavenging activity of sample and control solutions; assay type: biochemical; details: 0.83 mg/ml; 0.2 mmol/L DPPH, 30 min, 517 nm; n = 3
# Scavenging activity per record follows
Kindly provide the numeric value in % only, without the unit symbol.

Some solved cases for reference:
Notebook: O=C(O)CCSCCC(=O)O [D, Thiodipropionic acid] , Scavenging activity read as 9.18

So for COc1c(O)cc2c(c1O)C1OC(COC(=O)CCSCCC(=O)OCC3OC4c5c(cc(O)c(OC)c5O)C(=O)OC4C(O)C3O)C(O)C(O)C1OC2=O (stereo not shown) [B] , the logged Scavenging activity turned out to be 60.22

The value of Scavenging activity measured for the compound COc1c(O)cc2c(c1O)[C@@H]1O[C@H](CO)[C@@H](O)[C@H](O)[C@H]1OC2=O [C, Bergenin] turned out to be 25.59

Let's switch to this compound now.
Recorded result, O=C1O[C@H]([C@@H](O)CO)C(O)=C1O [Vc, Vitamin C] , Scavenging activity: 95.03

###

Listing of entries alongside the reported Scavenging activity.
assay: DPPH radical scavenging activity of sample and control solutions; type: biochemical; details: 16.56 mg/ml; 0.2 mmol/L DPPH, 30 min, 517 nm; n = 3
State just the number; it will be interpreted in %.

Recorded Scavenging activity (compound O=C(O)CCSCCC(=O)O [D, Thiodipropionic acid] ): 11.83

Memo: COc1c(O)cc2c(c1O)[C@@H]1O[C@H](CO)[C@@H](O)[C@H](O)[C@H]1OC2=O [C, Bergenin] , reported Scavenging activity: 94.78

Entry O=C1O[C@H]([C@@H](O)CO)C(O)=C1O [Vc, Vitamin C] , Scavenging activity reported as 99.00

get_value(item= COc1c(O)cc2c(c1O)C1OC(COC(=O)CCSCCC(=O)OCC3OC4c5c(cc(O)c(OC)c5O)C(=O)OC4C(O)C3O)C(O)C(O)C1OC2=O (stereo not shown) [B] , readout=Scavenging activity) returns 95.67
